B1: POU domain, class 4, transcription factor 1, residues 266 to 347; numbered along this chain, Q01851 (parent)
chain: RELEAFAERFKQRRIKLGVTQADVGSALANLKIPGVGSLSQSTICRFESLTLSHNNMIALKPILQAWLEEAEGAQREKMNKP

# Variants of: B1
# TEST_NAME: abundance fitness (aPCA) (normalised: wild type 0, dead -1); higher = more abundant; growth selection in yeast, the domain comes from the species named
# RECORDED_CONDITIONS: Homo sapiens
Documented abundance fitness across a set of variants

T51R = -0.017
D23W = -0.405
F10H = -0.92
R9H = -0.003
L60V = -0.029
L28A = -0.422
A27W = -0.088
Q75D = -0.045
N55F = -0.18
Q12T = -0.021

INPUT: Find the recorded abundance fitness belonging to `Q12I` and report it.
OUTPUT: -0.144

INPUT: Proceed to `K16W`
OUTPUT: -0.177

INPUT: Proceed to `L31M`
OUTPUT: 0.003

INPUT: Proceed to `L64F`
OUTPUT: -0.337
